SUBJECT_OF_TEST: alpha1 adrenoceptor (Mus musculus, UniProt P97714+P97717+P97718)
Sequence (P97714 whole entry): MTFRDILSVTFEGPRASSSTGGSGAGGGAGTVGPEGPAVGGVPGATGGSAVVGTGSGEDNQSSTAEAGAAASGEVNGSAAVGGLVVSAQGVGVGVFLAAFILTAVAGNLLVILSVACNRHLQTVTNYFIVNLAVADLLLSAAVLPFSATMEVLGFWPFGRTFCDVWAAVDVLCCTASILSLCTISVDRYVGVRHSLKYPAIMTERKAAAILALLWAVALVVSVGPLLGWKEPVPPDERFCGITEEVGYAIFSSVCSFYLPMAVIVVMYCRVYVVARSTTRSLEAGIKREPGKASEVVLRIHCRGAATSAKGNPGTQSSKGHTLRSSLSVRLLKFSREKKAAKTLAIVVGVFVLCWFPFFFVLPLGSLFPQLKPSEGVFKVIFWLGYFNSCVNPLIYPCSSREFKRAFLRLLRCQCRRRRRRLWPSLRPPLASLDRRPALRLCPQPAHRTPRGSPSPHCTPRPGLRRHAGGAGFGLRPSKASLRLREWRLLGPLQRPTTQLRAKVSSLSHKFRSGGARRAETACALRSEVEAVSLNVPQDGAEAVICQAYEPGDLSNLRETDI
Sequence (P97717 whole entry): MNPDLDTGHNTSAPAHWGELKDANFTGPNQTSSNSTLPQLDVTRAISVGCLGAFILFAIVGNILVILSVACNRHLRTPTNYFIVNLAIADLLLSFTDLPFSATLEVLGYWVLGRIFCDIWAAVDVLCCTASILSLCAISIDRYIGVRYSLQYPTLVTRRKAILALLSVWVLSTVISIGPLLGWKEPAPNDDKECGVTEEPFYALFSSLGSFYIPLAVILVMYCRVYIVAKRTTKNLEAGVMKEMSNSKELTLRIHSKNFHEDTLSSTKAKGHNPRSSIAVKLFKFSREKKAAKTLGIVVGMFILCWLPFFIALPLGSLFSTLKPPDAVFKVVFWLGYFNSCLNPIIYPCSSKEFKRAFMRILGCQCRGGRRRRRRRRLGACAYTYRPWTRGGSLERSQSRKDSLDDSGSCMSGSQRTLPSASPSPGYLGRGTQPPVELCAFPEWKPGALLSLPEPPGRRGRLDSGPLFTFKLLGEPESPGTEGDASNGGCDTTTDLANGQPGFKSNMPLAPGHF
Sequence (P97718 whole entry): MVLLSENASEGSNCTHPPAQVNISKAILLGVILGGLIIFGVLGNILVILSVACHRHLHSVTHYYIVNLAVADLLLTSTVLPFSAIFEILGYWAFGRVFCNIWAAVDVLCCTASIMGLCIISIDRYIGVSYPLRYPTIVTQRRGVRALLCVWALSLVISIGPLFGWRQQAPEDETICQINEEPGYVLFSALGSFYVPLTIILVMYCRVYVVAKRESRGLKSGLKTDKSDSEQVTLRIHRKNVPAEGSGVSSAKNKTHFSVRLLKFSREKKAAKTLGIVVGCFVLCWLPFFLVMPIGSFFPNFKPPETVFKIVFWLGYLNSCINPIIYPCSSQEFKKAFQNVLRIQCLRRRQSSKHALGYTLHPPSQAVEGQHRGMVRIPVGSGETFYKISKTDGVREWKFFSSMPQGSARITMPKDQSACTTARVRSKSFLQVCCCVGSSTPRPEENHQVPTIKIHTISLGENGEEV
PROTOCOL_SUMMARY: Displacement of [3H]prazosin from alpha1 adrenoceptor in C57BL/6 mouse hippocampal homogenates assessed as remaining receptor bound [3H]prazosin levels at 0.1 uM after 40 mins by liquid scintillation counting method relative to control
REPORTED_CONDITIONS: probe [3H]prazosin, read-out: Activity
# label = T if activity at 40 min, 0.1 µM < 80% else F

Examples with answers:
# SUBSTANCE_SMILES, ASSIGNED_LABEL
data = [
    ("Cc1ccnc2ccccc12", "T"),
    ("CCN1/C(=C/c2ccc3cc(I)ccc3[n+]2CC)C=Cc2ccccc21.[I-]", "F"),
    ("CCN1/C(=C/c2ccc3cc(Br)ccc3[n+]2CC)C=Cc2ccccc21.[I-]", "T"),
]

Req: Identify whether the compound CC(C)[n+]1ccc(/C=C2/C=Cc3ccccc3N2C)c2ccccc21.O=C([O-])C(F)(F)F records activity at 40 min, 0.1 µM below 80%.
Resp: F

Req: Problem: For the compound CCN1/C(=C/c2ccc3ccccc3[n+]2CC)C=Cc2ccccc21.[I-] , is activity at 40 min, 0.1 µM under 80%?
Resp: T
